Attribution: ChEMBL document CHEMBL3286247

- Assay Notes: Inhibition of Staphylococcus aureus MraY by fluorescence assay
pIC50: −log10 of the molar value.
Property Name: pIC50

- Smiles Representation: "CCCCCCCCCCCCCCC[C@H](NC(=O)c1ccc2ccccc2n1)C(=O)NCCCN[C@H](C(=O)O)[C@H](O[C@@H]1O[C@H](CN)[C@@H](O)[C@H]1O)[C@H]1O[C@@H](n2ccc(=O)[nH]c2=O)[C@H](O)[C@@H]1O"
  Observed Value: 6.98
- Smiles Representation: "CCCCCCCCCCCCCCC[C@H](NC(=O)[C@@H](NC(=O)N[C@H](C(=O)O)C(C)C)[C@H]1CCNC(=N)N1)C(=O)NCCCN[C@H](C(=O)O)[C@H](O[C@@H]1O[C@H](CN)[C@@H](O)[C@H]1O)[C@H]1O[C@@H](n2ccc(=O)[nH]c2=O)[C@H](O)[C@@H]1O"
  Observed Value: 9.10
